# System: Uromyces phaseoli
# test name: Bean rust fungus eradicant test (URO PHA)
# Format: in vivo
# measurement conditions: pinto bean, eradicant spray 2 days after inoculation, 1,000 mg/l
Kindly supply the reported Percent Reduction of Disease, URO PHA values for the records listed here.
Number only, in %; omit the unit.

Any idea what Percent Reduction of Disease, URO PHA was measured for CCCCC(C#N)(CCc1ccc(OCC)cc1)c1cccnc1 (centres unmarked) ?
90

Would you mind doing CCCCC(C#N)(CCc1ccc(OC)cc1)c1ccccn1 (centres unmarked) [Compound 27] as well?
100

Would you mind doing CC(C)CCC(C#N)(CCc1ccc(F)cc1)c1cccnc1 (centres unmarked) [Compound 49] as well?
83

Would you mind doing COc1ccc(CCC(C#N)(CC(C)C)c2ccccn2)cc1 (centres unmarked) as well?
100

Would you mind doing CCCCC(C#N)(CCc1ccc(OCCC)cc1)c1cccnc1 (centres unmarked) as well?
0

All figures here come from patent US5945436A.
